B1: tRNA (parent)
chain: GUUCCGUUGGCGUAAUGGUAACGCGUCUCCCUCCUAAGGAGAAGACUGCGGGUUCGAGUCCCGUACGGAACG

Variants of: B1
runDescription: yeast fitness relative to wild type (ratio to wild type); higher = fitter; tRNA-Arg(CCU), competitive growth, 37 C, YPD
This sample holds only a part of the variants without activity.
For each entry below, report its yeast fitness value.
Answers are plain numbers.

Look over these answered cases.
biopolymerSequence	assayMetric	observed
GUUCCGUUGGCGUAAUGGUAACGCGUCUCCCUCCUAAGGAGAAGACUGCGGGUUCGAGUCUCGUACGGCACG [C61U A69C]	yeast fitness	0.882
GAUCUGUUGGCGUAAUGGUUACGCGUCUCCCUCCUAAAGAGAAGACUGCGGGUUCGAGUCCCGUACGGAACG [U2A C5U A20U G38A]	yeast fitness	0.56
GUUCCGUUGGCGUAAUGGUAACGCGUCUCCCUCCUAAGGAGAAGAAUGCGGGUUCGAGUUCCGUACGGAACG [C46A C60U]	yeast fitness	0.83

Give measured yeast fitness for every item shown.
1. GUUCUGUUGGCAUAAUGGUAACGCGUCUUCCUCCUAAGGAGAAGACUGCGGGUUCGAGUCCCGUACGGAACG [C5U G12A C29U]
2. GCUCCGUUGGGGUAAUGGUAACGCGUCUCCCUCCUAAGGAGAAGACUGCGGGUUCGAGUCCCGUACGGAACG [U2C C11G]
3. GUUCCGUUGGCGUAAUGGUUACGCGUCUCCCUCCUAAGGAGAAGACUGCGGGUUCGAGUCCCAUACGGAACG [A20U G63A]

1: 0.565; 2: 0.617; 3: 0.932

For every item below, please supply its yeast fitness.
1. GUUGCGUUGGCGUAAUGGUAACGCGUCUCCCUCCUAAGGUGAAGACUGCGGGUUCGAGUCCCGUAGGGAACG [C4G A40U C66G]
2. GUUCCGUUGGCGUAAUGGUAACGCGUCUCCCUCCUAAGGAGAAGACGGCGGGUUCGAGUCCCGUACGCAACG [U47G G68C]
3. GAUCCCUUGGCGUAAUGGUAACGCGUCUCCCUCCUAAAGAGAAGACUGCGGGUUCGAGUCCCGUACGGAACG [U2A G6C G38A]

1: 0.624; 2: 0.563; 3: 0.592

Provide the reported yeast fitness of each entry below, same order.
1. GUUUCGUUGGCGUAAUGGUAGCGCGUCUCCCUCCUAAGGAGAAGAAUGCGGGUUCGAGUCCCGUACGGAACG [C4U A21G C46A]
2. GUUCCGUUGGCGUAAUGGUGGCGCGUCUGCCUCCUAAGGAGAAGACUGCGGGUUCGAGUCCCGUACGGAACG [A20G A21G C29G]
3. GUUCCGUUGGCGUAAUGGUAACGCGUCUCCCUCCUAAGGAGAAGACUGCGGGUUCGAGUCCUGUUCAGAACG [C62U A65U G67A]
4. GUUGCGUUGGCGUAAUGGUAACGCGUCUCCCUCCUAAGGAGAAGGCUGCGGGUUCGAGUCCCGUACGCAACG [C4G A45G G68C]

0.899
0.543
0.532
0.567

Give yeast fitness for each of the items listed below.
1. GUUCCGUUGGCGUAAUGGUGACGUAUCUCCCUCCAAAGGAGAAGACUGCGGGUUCGAGUUCCGUACGGAGCG [A20G C24U G25A U35A C60U A70G]
2. GUUCCGUUGGCGUAAUGGUAACGCGUCUCCCUCCUAAGGAGAAGUCUGCGGGUUCGAGUCCCCUACGGAACG [A45U G63C]
3. GUUCCGUUGGCGUAAUGGUAACGCGUCUCCCCCCUAAGGAGAAGACUGCGGGUUCGAGUCCCGUACGAAACG [U32C G68A]
4. GUUCCGUUGACGUAAUGGUAACGCGUCUCCCUCCUAAGGAGAAGACUGCGGGUUCGAGUCCCGUAUGGAACG [G10A C66U]
5. GUUCCGUUGGCGUAAUGGUAAGGCGUCUACCUCCUAAGGAGAAGACUGCGGGUUCGAGUCCCAUACGGAACG [C22G C29A G63A]
6. GUUGCGUUGGCGUAAUGGUAACGGGUCUCCCUCCUAAGGAGAAGACUGCGGGUUCGAGUCCCGUACGGAACG [C4G C24G]
7. GUUCCGUUGGCGUAAUGGUAACGCGUCUCCCUCGUAAGGCGAAGAGUGCGGGUUCGAGUCCCGUACGGAACG [C34G A40C C46G]

[0.655, 0.542, 0.921, 0.635, 0.553, 0.617, 0.562]

For this variant ( GUUCCGUUGGCGUAAUGGUAACGUGUCUCCCUCCUAAGGAGAAGACUGCGGGUUCGAGUCCCGUACAGAACG [C24U G67A] ), measured yeast fitness is 0.913
